Below, each of the compounds is paired with its reported CC50 value.
- Tested on: HeLa
- method_description: SRB colorimetric assay of cell growth and viability, HeLa
- Format: cell-based, human
- measurement_parameters: HELA; 48 hours exposure; read-out: LC50 HELA
Where a SMILES comes first, the peptide text is derived from it. Bridges are numbered along the chain shown (N, C = ends). [ ]: non-standard residue; d: D form. The star is where a group is joined. d(aIle) = CC[C@H](C)[C@@H](N)C(=O)O; d(aThr) = C[C@@H](O)[C@@H](N)C(=O)O; Hexanoyl(5-Me) = CC(C)CCCC(=O)*; Phg = N[C@H](C(=O)O)c1ccccc1; Orn = NCCC[C@H](N)C(=O)O; Dhb = C/C=C(\N)C(=O)O
Entry rule: numbers only, all in µM.

Observe how each entry below is paired with its result.
# compound, result_type, observed_measurement
records = [
    ("C/C=C1\\NC(=O)[C@H](Cc2ccccc2)NC(=O)[C@@H](C(C)C)NC(=O)[C@@H]([C@@H](C)CC)NC(=O)[C@H](NC(=O)[C@H](NC(=O)[C@H](CCCNC(=O)CCCC[C@@H]2SC[C@@H]3NC(=O)N[C@@H]32)NC(=O)[C@H]2CCCN2C(=O)[C@H](NC(=O)[C@@H](NC(=O)[C@@H](NC(=O)[C@H](NC(=O)CCCC(C)C)C(C)C)[C@@H](C)O)C(C)C)C(C)C)[C@@H](C)CC)[C@@H](C)OC(=O)[C@H](C(C)C)NC1=O [Compound 99, [Orn(Biot)^8]-Kahalalide F]", "CC50", 3.51),
    ("C/C=C1\\NC(=O)[C@H](Cc2ccccc2)NC(=O)[C@@H](C(C)C)NC(=O)[C@@H]([C@@H](C)CC)NC(=O)[C@H](NC(=O)[C@H](NC(=O)[C@H](CCCN)NC(=O)[C@H]2CCCN2C(=O)[C@H](NC(=O)[C@@H](NC(=O)[C@@H](NC(=O)[C@@H](CCCN)NC(=O)CCCC(C)C)[C@@H](C)O)C(C)C)C(C)C)[C@@H](C)CC)[C@@H](C)OC(=O)[C@H](C(C)C)NC1=O [Compound 118, [D-Orn^13]-KF]", "CC50", 6.7),
    ("C/C=C1\\NC(=O)[C@H](c2ccccc2)NC(=O)[C@@H](C(C)C)NC(=O)[C@@H]([C@@H](C)CC)NC(=O)[C@H](NC(=O)[C@H](NC(=O)[C@H](CCCN)NC(=O)[C@H]2CCCN2C(=O)[C@H](NC(=O)[C@@H](NC(=O)[C@@H](NC(=O)[C@H](NC(=O)CCCC(C)C)C(C)C)[C@@H](C)O)C(C)C)C(C)C)[C@@H](C)CC)[C@@H](C)OC(=O)[C@H](C(C)C)NC1=O [Compound 87, [Phg^3]-KF] ({Hexanoyl(5-Me)}-[dV]TV[dV][dP][Orn][d(aIle)][d(aThr)][d(aIle)][dV][Phg][Dhb]V; ester 8-C)", "CC50", 1.9),
]

// switching to the query compound
Problem: Give the reported value of CC50 for this record: C/C=C1\NC(=O)[C@H](Cc2ccccc2)NC(=O)[C@@H](C(C)C)NC(=O)[C@@H]([C@@H](C)CC)NC(=O)[C@H](NC(=O)[C@H](NC(=O)[C@H](CCCN)NC(=O)[C@H]2CCCN2C(=O)[C@H](NC(=O)[C@@H](NC(=O)[C@H](CCC(=O)O)NC(=O)[C@H](NC(=O)CCCC(C)C)C(C)C)C(C)C)C(C)C)[C@@H](C)CC)[C@@H](C)OC(=O)[C@H](C(C)C)NC1=O [Compound 115, [Glu^12]-KF] ({Hexanoyl(5-Me)}-[dV]EV[dV][dP][Orn][d(aIle)][d(aThr)][d(aIle)][dV]F[Dhb]V; ester 8-C)
Solution: 6.64

====

- Test system: HeLa
- method_description: SRB colorimetric assay of cell growth and viability, HeLa
- Format: cell-based, human
- measurement_parameters: 48 hours exposure; read-out: LC50 HELA
Below, each of the compounds is paired with its reported CC50 value.

# compound, result_type, observed_measurement
data = [
    ("C/C=C1\\NC(=O)[C@H](Cc2ccccc2)NC(=O)[C@@H](C(C)C)NC(=O)[C@@H]([C@@H](C)CC)NC(=O)[C@H](NC(=O)[C@H](NC(=O)[C@H](CCCN)NC(=O)[C@H]2CCCN2C(=O)[C@H](NC(=O)[C@@H](NC(=O)[C@@H](NC(=O)[C@H](NC(=O)Cc2cc(F)cc(F)c2)C(C)C)[C@@H](C)O)C(C)C)C(C)C)[C@@H](C)CC)[C@@H](C)OC(=O)[C@H](C(C)C)NC1=O [Compound 22, [3,5-dFPhAc^14]-KF]", "CC50", "6.58 µM"),
]

Problem: Give the reported value of CC50 for this record: C/C=C1\NC(=O)[C@H](Cc2ccccc2)NC(=O)[C@@H](C(C)C)NC(=O)[C@@H]([C@@H](C)CC)NC(=O)[C@H](NC(=O)[C@H](NC(=O)[C@H](CCCN)NC(=O)[C@H]2CCCN2C(=O)[C@H](NC(=O)[C@H](NC(=O)[C@@H](NC(=O)[C@H](NC(=O)CCCC(C)C)C(C)C)[C@@H](C)O)C(C)C)C(C)C)[C@@H](C)CC)[C@@H](C)OC(=O)[C@H](C(C)C)NC1=O [Compound 46, [D-Val^11]-KF]
Solution: ≥ 6.77 µM

====

- System: LoVo
- method_description: SRB colorimetric assay of cell growth and viability, LoVo
- Type: cell-based, human
- measurement_parameters: 48 hours exposure
- Procedure: The finality of this assay is to interrupt the growth of a “in vitro” tumor cell culture by means a continued exhibition of the cells to the sample to be testing. […] Cells are seeded in 96 well microtiter plates, at 5×10^3 cells per well in aliquots of 195 μL medium, and they are allowed to attach to the plate surface by growing in drug free medium for 18 hours. […] Optical densities are read on a automated spectrophotometric plate reader at a single wavelength of 490 nm. […]
Where a SMILES comes first, the peptide text is derived from it. Bridges are numbered along the chain shown (N, C = ends). [ ]: non-standard residue; d: D form. The star is where a group is joined. d(aIle) = CC[C@H](C)[C@@H](N)C(=O)O; d(aThr) = C[C@@H](O)[C@@H](N)C(=O)O; Hexanoyl(5-Me) = CC(C)CCCC(=O)*; dCha = N[C@H](CC1CCCCC1)C(=O)O; Orn = NCCC[C@H](N)C(=O)O; Dhb = C/C=C(\N)C(=O)O
Below, each of the compounds is paired with its reported log10 of GI50 value.
In plain terms, each number is the log10 of measured GI50 in nM.

Observe how each entry below is paired with its result.
# compound, log10 of GI50
data = [
    ("C/C=C1\\NC(=O)[C@H](Cc2ccccc2)NC(=O)[C@@H](C(C)C)NC(=O)[C@@H]([C@@H](C)CC)NC(=O)[C@H](NC(=O)[C@H](NC(=O)[C@H](CCCN)NC(=O)[C@H]2CCCN2C(=O)[C@H](NC(=O)[C@@H](NC(=O)[C@@H](NC(=O)[C@H](NC(=O)CCCCCCCCCCCCCCCCCCC)C(C)C)[C@@H](C)O)C(C)C)C(C)C)[C@@H](C)CC)[C@@H](C)OC(=O)[C@H](C(C)C)NC1=O [Compound 13, [Icos^14]-KF]", 2.96),
    ("C/C=C1\\NC(=O)[C@H](Cc2ccccc2)NC(=O)[C@@H](C(C)C)NC(=O)[C@@H]([C@@H](C)CC)NC(=O)[C@H](NC(=O)[C@H](NC(=O)[C@H](CCCN)NC(=O)[C@H]2CCCN2C(=O)[C@H](NC(=O)[C@@H](NC(=O)[C@H](CCC(=O)O)NC(=O)CCCC(C)C)C(C)C)C(C)C)[C@@H](C)CC)[C@@H](C)OC(=O)[C@H](C(C)C)NC1=O [Compound 56, [Glu^12, noD-Val^13]-KF] ({Hexanoyl(5-Me)}-EV[dV][dP][Orn][d(aIle)][d(aThr)][d(aIle)][dV]F[Dhb]V; ester 7-C)", 3.35),
    ("C/C=C1\\NC(=O)[C@H](Cc2ccccc2)NC(=O)[C@@H](C(C)C)NC(=O)[C@@H]([C@@H](C)CC)NC(=O)[C@H](NC(=O)[C@H](NC(=O)[C@H](CCCN)NC(=O)[C@H]2CCCN2C(=O)[C@H](NC(=O)[C@@H](NC(=O)[C@@H](NC(=O)[C@H](NC(=O)CCCCCCC)C(C)C)[C@@H](C)O)C(C)C)C(C)C)[C@@H](C)CC)[C@@H](C)OC(=O)[C@H](C(C)C)NC1=O [Compound 18, [Oct^14]-KF]", 2.27),
    ("C/C=C1\\NC(=O)[C@H](Cc2ccccc2)NC(=O)[C@@H](C(C)C)NC(=O)[C@@H]([C@@H](C)CC)NC(=O)[C@H](NC(=O)[C@H](NC(=O)[C@H](CCCN)NC(=O)[C@H]2CCCN2C(=O)[C@H](NC(=O)[C@@H](NC(=O)[C@@H](NC(=O)[C@H](NC(=O)CCCCC(C)(F)F)C(C)C)[C@@H](C)O)C(C)C)C(C)C)[C@@H](C)CC)[C@@H](C)OC(=O)[C@H](C(C)C)NC1=O [Compound 28, [6,6-dFHep^14]-KF]", 2.29),
    ("C/C=C1\\NC(=O)[C@H](Cc2ccccc2)NC(=O)[C@@H](C(C)C)NC(=O)[C@@H]([C@@H](C)CC)NC(=O)[C@H](NC(=O)[C@H](NC(=O)[C@H](CCCN)NC(=O)[C@H]2CCCN2C(=O)[C@H](NC(=O)[C@@H](NC(=O)[C@H](CC(C)C)NC(=O)CCCC(C)C)C(C)C)C(C)C)[C@@H](C)CC)[C@@H](C)OC(=O)[C@H](C(C)C)NC1=O [Compound 54, [Leu^12, noD-Val^13]-KF] ({Hexanoyl(5-Me)}-LV[dV][dP][Orn][d(aIle)][d(aThr)][d(aIle)][dV]F[Dhb]V; ester 7-C)", 3.03),
    ("C/C=C1\\NC(=O)[C@H](Cc2ccccc2)NC(=O)[C@@H](CC2CCCCC2)NC(=O)[C@@H](CC2CCCCC2)NC(=O)[C@H](NC(=O)[C@@H](CC2CCCCC2)NC(=O)[C@H](CCCN)NC(=O)[C@H]2CCCN2C(=O)[C@H](NC(=O)[C@@H](NC(=O)[C@@H](NC(=O)[C@H](NC(=O)CCCC(C)C)C(C)C)[C@@H](C)O)C(C)C)C(C)C)[C@@H](C)OC(=O)[C@H](C(C)C)NC1=O [Compound 11, [D-Cha^4, D-Cha^5, D-Cha^7]-KF] ({Hexanoyl(5-Me)}-[dV]TV[dV][dP][Orn][dCha][d(aThr)][dCha][dCha]F[Dhb]V; ester 8-C)", 1.99),
    ("C/C=C1\\NC(=O)[C@H](Cc2ccccc2)NC(=O)[C@@H](C(C)C)NC(=O)[C@@H]([C@@H](C)CC)NC(=O)[C@H](NC(=O)[C@H](NC(=O)[C@H](CCCN)NC(=O)[C@H]2CCCN2C(=O)[C@H](NC(=O)[C@@H](NC(=O)[C@H](C)NC(=O)CCCC(C)C)C(C)C)C(C)C)[C@@H](C)CC)[C@@H](C)OC(=O)[C@H](C(C)C)NC1=O [Compound 52, [Ala^12, noD-Val^13]-KF] ({Hexanoyl(5-Me)}-AV[dV][dP][Orn][d(aIle)][d(aThr)][d(aIle)][dV]F[Dhb]V; ester 7-C)", 3.87),
    ("C/C=C1\\NC(=O)[C@H](Cc2ccccc2)NC(=O)[C@@H](C(C)C)NC(=O)[C@@H]([C@@H](C)CC)NC(=O)[C@H](NC(=O)[C@H](NC(=O)[C@H](CCCCN)NC(=O)[C@H]2CCCN2C(=O)[C@H](NC(=O)[C@@H](NC(=O)[C@@H](NC(=O)[C@H](NC(=O)CCCC(C)C)C(C)C)[C@@H](C)O)C(C)C)C(C)C)[C@@H](C)CC)[C@@H](C)OC(=O)[C@H](C(C)C)NC1=O [Compound 5, [Lys^8]-KF]", 2.19),
]

// switching to the query compound
Problem: Give the reported value of log10 of GI50 for this record: C/C=C1\NC(=O)[C@H](Cc2ccccc2)NC(=O)[C@@H](C(C)C)NC(=O)[C@@H]([C@@H](C)CC)NC(=O)[C@H](NC(=O)[C@H](NC(=O)[C@H](CCCN)NC(=O)[C@H]2CCCN2C(=O)[C@H](NC(=O)[C@@H](NC(=O)[C@@H](NC(=O)[C@@H](NC(=O)CCCC(C)C)C(C)C)[C@@H](C)O)C(C)C)C(C)C)[C@@H](C)CC)[C@@H](C)OC(=O)[C@H](C(C)C)NC1=O [Compound 38, [Val^13]-KF]
Solution: 3.11

These measurements were taken from patent US20070117743A1.
